Measured pIC50 accompanies every entry in the list below.
target: ribosomes from S. cerevisiae Y166 (peptidyl transferase activity); assay: polyphenylalanine synthesis assay, S. cerevisiae ribosomes; type: biochemical; details: concentration giving 50% inhibition relative to control; 30° C., 30 min; read-out: ED50 polyPhe synthesis S. cerevisiae
// pIC50: -log10(molar conc.)

chemical-string | pIC50
CCCCCCCCSC[S@+]([O-])C[C@H](CO)NC(=O)/C=C/c1c(C)[nH]c(=O)[nH]c1=O | 5.89

Switching to the query record.
Ask: Consider the compound `CSC[S@+]([O-])C[C@H](C)NC(=O)/C=C/c1c(C)[nH]c(=O)[nH]c1=O` and give its measured pIC50.
Result: 5.12
